// data source = the supplement of paper PMC10307832

test system: NCI-H460; test: relative viability (nuclei count vs DMSO), 5 days (fraction); higher = more cells survive; settings: first compound 0.8 µM
Would you mind telling me the reported relative viability of each entry?
Output spec: single numeric token, no unit.

Enquiry: Name the recorded relative viability for COc1nc(C)cnc1NS(=O)(=O)c1cccnc1-c1ccc(-c2nnco2)cc1 [Zibotentan] + Nc1ncn([C@H]2C[C@H](O)[C@@H](CO)O2)c(=O)n1 [Decitabine] (partner 2 µM) .
Return: 0.464

Enquiry: Do the same for O=c1cc(-c2cccc3c2Sc2ccccc2S3)oc(N2CCOCC2)c1 + O=C(c1cc(Cc2n[nH]c(=O)c3ccccc23)ccc1F)N1CCN(C(=O)C2CC2)CC1 [Olaparib] (partner 8 µM) please
Return: 0.454

Enquiry: Do the same for O=c1cc(-c2cccc3c2Sc2ccccc2S3)oc(N2CCOCC2)c1 + Cc1cc(Nc2cc(N3CCN(C)CC3)nc(Sc3ccc(NC(=O)C4CC4)cc3)n2)n[nH]1 [Tozasertib] (partner 0.1 µM) please
Return: 0.147

Enquiry: Do the same for O=c1cc(-c2cccc3c2Sc2ccccc2S3)oc(N2CCOCC2)c1 + C[C@@H](Oc1cc(-c2cnn(C3CCNCC3)c2)cnc1N)c1c(Cl)ccc(F)c1Cl [Crizotinib] (partner 1 µM) please
Return: 0.761

Enquiry: Do the same for COc1nc(C)cnc1NS(=O)(=O)c1cccnc1-c1ccc(-c2nnco2)cc1 [Zibotentan] + Nc1nc2[nH]cc(CCc3ccc(C(=O)N[C@@H](CCC(=O)O)C(=O)O)cc3)c2c(=O)[nH]1 [Pemetrexed] (partner 0.2 µM) please
Return: 0.0545

Enquiry: Do the same for O=c1cc(-c2cccc3c2Sc2ccccc2S3)oc(N2CCOCC2)c1 + CC(=O)Nc1cccc(-n2c(=O)n(C3CC3)c(=O)c3c(Nc4ccc(I)cc4F)n(C)c(=O)c(C)c32)c1 [Trametinib] (partner 0.02 µM) please
Return: 0.113

Enquiry: Do the same for O=c1cc(-c2cccc3c2Sc2ccccc2S3)oc(N2CCOCC2)c1 + Nc1nc2[nH]cc(CCc3ccc(C(=O)N[C@@H](CCC(=O)O)C(=O)O)cc3)c2c(=O)[nH]1 [Pemetrexed] (partner 0.2 µM) please
Return: 0.0622

Enquiry: Do the same for O=c1cc(-c2cccc3c2Sc2ccccc2S3)oc(N2CCOCC2)c1 + CC(C)C[C@H](NC(=O)[C@H](Cc1ccccc1)NC(=O)c1cnccn1)B(O)O [Bortezomib] (partner 0.002 µM) please
Return: 1.12

Enquiry: Do the same for O=c1cc(-c2cccc3c2Sc2ccccc2S3)oc(N2CCOCC2)c1 + COc1cccc2cc(-c3nc([C@H]4CC[C@H](C(=O)O)CC4)n4ncnc(N)c34)[nH]c12 [OSI-027] (partner 0.5 µM) please
Return: 0.643

Enquiry: Do the same for COc1nc(C)cnc1NS(=O)(=O)c1cccnc1-c1ccc(-c2nnco2)cc1 [Zibotentan] + CS(=O)(=O)N1CCN(Cc2cc3nc(-c4cccc5[nH]ncc45)nc(N4CCOCC4)c3s2)CC1 [Pictilisib] (partner 1 µM) please
Return: 0.327

Enquiry: Do the same for O=c1cc(-c2cccc3c2Sc2ccccc2S3)oc(N2CCOCC2)c1 + CC1(C)CCC(c2ccc(Cl)cc2)=C(CN2CCN(c3ccc(C(=O)NS(=O)(=O)c4ccc(N[C@H](CCN5CCOCC5)CSc5ccccc5)c(S(=O)(=O)C(F)(F)F)c4)cc3)CC2)C1 [Navitoclax] (partner 0.5 µM) please
Return: 1.42

Enquiry: Do the same for COc1nc(C)cnc1NS(=O)(=O)c1cccnc1-c1ccc(-c2nnco2)cc1 [Zibotentan] + CS(=O)(=O)CCNCc1ccc(-c2ccc3ncnc(Nc4ccc(OCc5cccc(F)c5)c(Cl)c4)c3c2)o1 [Lapatinib] (partner 2 µM) please
Return: 1.03
